Species: Rattus norvegicus
Protocol: Open TG-GATES - Regimen: Single
Assay type: toxicity, organism-based, Sprague-Dawley
Set-up: regimen Single, gender Male, age 6 weeks
Protocol conditions: in vivo, po, 100 mg/kg, 24 h, tissue Blood, route gavage, dose level Low
Parameter RBC: see the listing below.
Numbers only here, please. The scale is x10_4/ul.

Smiles | Endpoint unit | RBC
CN/C(=N/CCSCc1nc[nH]c1C)NC#N | x10_4/ul | 593.4
O=C(OC[C@H]1O[C@@H](OC(=O)c2cc(O)c(O)c(OC(=O)c3cc(O)c(O)c(O)c3)c2)[C@H](OC(=O)c2cc(O)c(O)c(OC(=O)c3cc(O)c(O)c(O)c3)c2)[C@@H](OC(=O)c2cc(O)c(O)c(OC(=O)c3cc(O)c(O)c(O)c3)c2)[C@@H]1OC(=O)c1cc(O)c(O)c(OC(=O)c2cc(O)c(O)c(O)c2)c1)c1cc(O)c(O)c(OC(=O)c2cc(O)c(O)c(O)c2)c1 | x10_4/ul | 585.2
CNC(=C[N+](=O)[O-])NCCSCc1ccc(CN(C)C)o1 | x10_4/ul | 617.2
Cc1nnc2n1-c1ccc(Cl)cc1C(c1ccccc1Cl)=NC2 | x10_4/ul | 640.8

Next:
Looking for the measured RBC of COC(=O)C1=C(C)NC(C)=C(C(=O)OC)C1c1ccccc1[N+](=O)[O-] , can you help?
629

====

Parameter Fbg: see the listing below.
Species: Rattus norvegicus
Protocol: Open TG-GATES - Regimen: Daily Repeat
Format: toxicity, organism-based, Sprague-Dawley
Set-up: regimen Daily Repeat, gender Male, age 6 weeks
Protocol conditions: in vivo, po, 0 mg/kg, […], tissue Blood, route gavage, dose level Control, time 28 day
Numbers only here, please. The scale is mg/dL.

Compound | Value type | Measured value
CN(C)CCC(c1ccc(Cl)cc1)c1ccccn1 (configuration not stated) | Fbg | 280.8

Next:
Looking for the measured Fbg of CC(C)NNC(=O)c1ccncc1 , can you help?
318.6

====

Organism: Rattus norvegicus
Protocol: Open TG-GATES - Regimen: Daily Repeat
Assay type: toxicity, organism-based, Sprague-Dawley
Design: regimen Daily Repeat, gender Male, age 6 weeks
Protocol conditions: in vivo, po, 100 mg/kg, […], tissue Blood, route gavage, dose level Low, time 28 day
Value type: PT (s)
Numbers only here, please. The scale is s.

Some compounds with known PT results, for comparison:
Compound | Measured value
CN/C(=N/CCSCc1nc[nH]c1C)NC#N [CIMETIDINE] | 12.9
Cc1nnc2n1-c1ccc(Cl)cc1C(c1ccccc1Cl)=NC2 [TRIAZOLAM] | 13.2
COC(=O)C1=C(C)NC(C)=C(C(=O)OC)C1c1ccccc1[N+](=O)[O-] [NIFEDIPINE] | 13.8

Looking for the measured PT of CNC(=C[N+](=O)[O-])NCCSCc1ccc(CN(C)C)o1 [RANITIDINE] , can you help?
12.2

Looking for the measured PT of O=C(OC[C@H]1O[C@@H](OC(=O)c2cc(O)c(O)c(OC(=O)c3cc(O)c(O)c(O)c3)c2)[C@H](OC(=O)c2cc(O)c(O)c(OC(=O)c3cc(O)c(O)c(O)c3)c2)[C@@H](OC(=O)c2cc(O)c(O)c(OC(=O)c3cc(O)c(O)c(O)c3)c2)[C@@H]1OC(=O)c1cc(O)c(O)c(OC(=O)c2cc(O)c(O)c(O)c2)c1)c1cc(O)c(O)c(OC(=O)c2cc(O)c(O)c(O)c2)c1 [TANNIC ACID] , can you help?
12
